- Tested on: A-431 cells (human epidermoid squamous cell carcinoma cells)
- test.details: Proliferation assay (alamarBlue) with A-431 cells
- Assay type: cell-based
- condition.notes: Homo sapiens, 20 μM, read-out: Activity Range: weighted arithmetic mean (AVEw) of normalized fluorescence intensity relative to DMSO basis level 1.0
Kindly supply the reported activity at 20 µM values for the records listed here.

Consider the following illustrative entries.
1. C=Cc1cc(C2CCCCC2)ccc1Oc1ccc(C(=O)OCC)cc1 ... 40 to 60%
2. COC1(c2ccc(Oc3ccc(C45CC6CC(CC(C6)C4)C5)cc3)cc2)CN(C)C1 ... 0 to 20%
3. CN(Cc1cnc2nc(N)nc(N)c2n1)c1ccc(C(=O)N[C@@H](CCC(=O)O)C(=O)O)cc1 [MTREX, Methotrexate, reference compound] ... 20%
4. OCc1ccc(Oc2ccc(C3CCCCC3)cc2)cc1 ... 70 to 80%
5. Oc1ccc(C=Cc2cc(O)cc(O)c2)cc1 [RES, resveratrol, reference compound] ... 60%

I would be grateful if you could provide activity at 20 µM for each of the following entries.
1. CCOC(=O)c1ccc(Oc2ccc(C3CCN(C)CC3)cc2)cc1
2. CCOC(=O)c1ccc(Oc2ccc(CCN(C)C)cc2)cc1

1: 0 to 20%; 2: 80 to 90%

I would be grateful if you could provide activity at 20 µM for each of the following entries.
1. c1ccc(COC2(c3ccc(Oc4ccc(C5CCCCC5)cc4)cc3)CNC2)cc1
2. COC1(c2ccc(Oc3ccc(C4CCCCC4)cc3)cc2)COC1
3. O=Cc1ccc(Oc2ccc(C34CC5CC(CC(C5)C3)C4)cc2)cc1
4. OC1(c2ccc(Oc3ccc(C45CC6CC(CC(C6)C4)C5)cc3)cc2)COC1

["0 to 20%", "20 to 40%", "80 to 90%", "40 to 60%"]

###

- Tested on: HL-60 cells (human acute myeloid leukemia cells)
- test.details: Proliferation assay (alamarBlue) with HL-60 cells
- Type: cell-based
- condition.notes: Homo sapiens, Table 30, compound at 20 μM, read-out: Activity Range (AVEw, weighted arithmetic mean of normalized fluorescence intensity, DMSO = 1.0)
measurement.kind: activity at 20 µM

Consider the following illustrative entries.
1) OCc1ccc(Oc2ccc(C3CCCCC3)cc2)cc1 ... 80 to 90%
2) CCOC(=O)c1ccc(Oc2ccc(C3CCN(C)CC3)cc2)cc1 ... 70 to 80%
3) CN(Cc1cnc2nc(N)nc(N)c2n1)c1ccc(C(=O)N[C@@H](CCC(=O)O)C(=O)O)cc1 [MTREX, Methotrexate, reference compound] ... 10%
4) OC1(c2ccc(Oc3ccc(C45CC6CC(CC(C6)C4)C5)cc3)cc2)COC1 ... 0 to 20%
5) C=Cc1cc(C2CCCCC2)ccc1Oc1ccc(C(=O)OCC)cc1 ... 0 to 20%

I would be grateful if you could provide activity at 20 µM for each of the following entries.
1. c1ccc(COC2(c3ccc(Oc4ccc(C5CCCCC5)cc4)cc3)CNC2)cc1
2. O=Cc1ccc(Oc2ccc(C34CC5CC(CC(C5)C3)C4)cc2)cc1
3. COC1(c2ccc(Oc3ccc(C45CC6CC(CC(C6)C4)C5)cc3)cc2)CN(C)C1
4. Oc1ccc(C=Cc2cc(O)cc(O)c2)cc1 [RES, resveratrol, reference compound]
5. COC1(c2ccc(Oc3ccc(C4CCCCC4)cc3)cc2)COC1

["0 to 20%", "40 to 60%", "0 to 20%", "40%", "20 to 40%"]
